Test system: rat aorta
method-description: inhibition of calcium-induced contraction (change in tension) of spirally cut strips of rat aorta in K+ 45 mM saline
Type: cell-based
conditions: 0.75 h, 45 millimolar potassium, 2 millimolar calcium, 45 minutes, read-out: IC50 (molar concentration required to reduce the response by 50%)
quantity: pIC50
Answers are plain numbers, as −log10 of the molar value.

>  <molecule>
CCOC(=O)C1=C(COCCNc2nc(N)n[nH]2)NC(C)=C(C(=O)OC)C1c1cccc(C(F)(F)F)c1Cl (stereo not drawn) [Example 2]

>  <endpoint-result>
8.64

$$$$
>  <molecule>
CCOC(=O)C1=C(COCCNc2nccnc2N2CCOCC2)NC(C)=C(C(=O)OC)C1c1ccccc1Cl (stereo not drawn) [Example 87]

>  <endpoint-result>
7.00

$$$$
>  <molecule>
CCOC(=O)C1=C(COCCNc2cc[nH]c(=O)n2)NC(C)=C(C(=O)OC)C1c1ccccc1Cl (stereo not drawn) [Example 12]

>  <endpoint-result>
7.54

$$$$
>  <molecule>
CCOC(=O)C1=C(COCCNc2n[nH]c(O)n2)NC(C)=C(C(=O)OC)C1c1cccc(Cl)c1Cl (stereo not drawn) [Example 90B, hydrate]

>  <endpoint-result>
8.00

$$$$
>  <molecule>
CCOC(=O)C1=C(COCCNc2ccc(C(N)=O)cn2)NC(C)=C(C(=O)OC)C1c1cccc(C(F)(F)F)c1Cl (stereo not drawn) [Example 63]

>  <endpoint-result>
8.53

$$$$

Can you give me pIC50 for all of these, one by one?
1. CCOC(=O)C1=C(COCCNc2nccc(C#N)n2)NC(C)=C(C(=O)OC)C1c1ccccc1Cl (stereo not drawn) [Example 28]
2. CCOC(=O)C1=C(COCCNc2c[n+]([O-])ccn2)NC(C)=C(C(=O)OC)C1c1cccc(Cl)c1Cl (stereo not drawn) [Example 50]
3. CCOC(=O)C1=C(COCCNc2nccc(=O)[nH]2)NC(C)=C(C(=O)OC)C1c1cccc(C(F)(F)F)c1Cl (stereo not drawn) [Example 59]
4. CCOC(=O)C1=C(COCCNc2nc3ccccc3nc2Cl)NC(C)=C(C(=O)OC)C1c1cccc(Cl)c1Cl (stereo not drawn) [Example 49]

Response:
1: 7.88; 2: 8.87; 3: 8.43; 4: 8.40

Below is a list of molecules. For each, state its recorded pIC50.
1. CCOC(=O)C1=C(COCCNc2nc(C(=O)OCC)cs2)NC(C)=C(C(=O)OC)C1c1ccccc1Cl (stereo not drawn) [Example 73]
2. CCOC(=O)C1=C(COCCNc2nc(N)c3cc(OC)c(OC)cc3n2)NC(C)=C(C(=O)OC)C1c1cccc(Cl)c1Cl (stereo not drawn) [Example 48]
3. CCOC(=O)C1=C(COCCNc2cc(N3CCOCC3)ncn2)NC(C)=C(C(=O)OC)C1c1ccccc1Cl (stereo not drawn) [Example 86]
4. CCOC(=O)C1=C(COCCNC2=NCCC2)NC(C)=C(C(=O)OC)C1c1ccccc1Cl (stereo not drawn) [Example 20]
5. CCOC(=O)C1=C(COCCNc2cc(N3CCCCC3)ncn2)NC(C)=C(C(=O)OC)C1c1ccccc1Cl (stereo not drawn) [Example 85]
6. CCOC(=O)C1=C(COCCNC2=NCCS2)NC(C)=C(C(=O)OC)C1c1ccccc1Cl (stereo not drawn) [Example 70]

Response:
1. 8.36
2. 7.53
3. 8.80
4. 7.00
5. 8.30
6. 8.03
